meta.source: patent US20200345010A1

# System: Zymoseptoria tritici
# method: Test B: wheat leaf blotch control on wheat seedlings
# Assay type: in vivo
# settings: 250 ppm test suspension (asterisk); wheat seedlings sprayed the day before inoculation; 100 = 100% disease control, 0 = none
Marks after values point to notes of the source that are not given here.
Below, each entry is listed alongside its reported Test B disease control rating.

These recorded examples may help you get a feel for the data.
# compound, Test B disease control rating
data = [
    ("Cl.O=S1(=NCc2ccc(-c3noc(C(F)(F)F)n3)cc2)CCNCC1 [Compound 24]", "18* %"),
    ("O=S1(=NCc2ccc(-c3noc(C(F)(F)F)n3)cc2)c2ccccc2-c2ccccc21 [Compound 41]", "86* %"),
    ("CS(=O)(=NCc1ccc(-c2noc(C(F)(F)F)n2)cc1)c1ccc2ccccc2c1 (centres unmarked) [Compound 29]", "3* %"),
    ("CS(=O)(=NCc1ccc(-c2noc(C(F)(F)F)n2)cc1)c1ccccc1 (centres unmarked) [Compound 21]", "70* %"),
    ("CS(=O)(=NCc1ccc(-c2noc(C(F)(F)F)n2)cc1)c1cccc(C#N)c1 (centres unmarked) [Compound 45]", "0* %"),
    ("CS(=O)(=NCc1ccc(-c2noc(C(F)(F)F)n2)cc1)c1cccs1 (centres unmarked) [Compound 27]", "98* %"),
]

Can you look up the measured Test B disease control rating of O=S(=NCc1ccc(-c2noc(C(F)(F)F)n2)cc1)(c1ccccc1)C1CC1 (centres unmarked) [Compound 12] for me? 53* %

Can you look up the measured Test B disease control rating of O=S(CCl)(=NCc1ccc(-c2noc(C(F)(F)F)n2)cc1)c1ccccc1 (centres unmarked) [Compound 15] for me? 28* %

----------
# Test system: Zymoseptoria tritici
# method: Test B: wheat leaf blotch control on wheat seedlings
# Assay type: in vivo
# settings: 250 ppm test suspension (asterisk); wheat seedlings sprayed the day before inoculation; 100 = 100% disease control, 0 = none
Marks after values point to notes of the source that are not given here.
endpoint name: Test B disease control rating

Can you look up the measured Test B disease control rating of O=S1(=NCc2ccc(-c3noc(C(F)(F)F)n3)cc2)CCCC1 [Compound 51] for me? 52* %

Can you look up the measured Test B disease control rating of CC(N=S(C)(C)=O)c1ccc(-c2noc(C(F)(F)F)n2)cc1 (centres unmarked) [Compound 52] for me? 25* %

Can you look up the measured Test B disease control rating of CS(=O)(Cc1ccccc1)=NCc1ccc(-c2noc(C(F)(F)F)n2)cc1 (centres unmarked) [Compound 2] for me? 93* %

Can you look up the measured Test B disease control rating of CS(=O)(=NCc1ccc(-c2noc(C(F)(F)F)n2)cc1)c1ccccc1C#N (centres unmarked) [Compound 44] for me? 0* %

Can you look up the measured Test B disease control rating of CS(=O)(=NCc1ccc(-c2noc(C(F)(F)F)n2)cc1)c1ccsc1 (centres unmarked) [Compound 28] for me? 79* %

----------
# Tested on: Zymoseptoria tritici
# method: Test B: wheat leaf blotch control on wheat seedlings
# Assay type: in vivo
# settings: 250 ppm test suspension (asterisk); wheat seedlings sprayed the day before inoculation; 100 = 100% disease control, 0 = none
Marks after values point to notes of the source that are not given here.
endpoint name: Test B disease control rating

These recorded examples may help you get a feel for the data.
# compound, test system, Test B disease control rating
measured = [
    ("Cc1cc(C)c(S(C)(=O)=NCc2ccc(-c3noc(C(F)(F)F)n3)cc2)c(C)c1 (stereo not drawn)", "Zymoseptoria tritici", "36* %"),
    ("CS(=O)(=Nc1ccc(-c2noc(C(F)(F)F)n2)cc1)c1cccs1 (stereo not drawn)", "Zymoseptoria tritici", "91* %"),
]

Can you look up the measured Test B disease control rating of `O=S1(=Nc2ccc(-c3noc(C(F)(F)F)n3)cc2)CCCC1` for me? 89* %

----------
endpoint name: melting point

# compound, endpoint name, meas value
rows = [
    ("O=S1(=NCc2ccc(-c3noc(C(F)(F)F)n3)cc2)c2ccccc2-c2ccccc21 [Compound 41]", "melting point", "120 to 124 °C"),
    ("O=S1(=Nc2ccc(-c3noc(C(F)(F)F)n3)cc2)c2ccccc2-c2ccccc21 [Compound 38]", "melting point", "230 to 234 °C"),
    ("O=S1(=NCc2ccc(-c3noc(C(F)(F)F)n3)cc2)CCCC1 [Compound 51]", "melting point", "58 to 63 °C"),
]

Alright, here's another compound for you.
Can you look up the measured melting point of Cl.O=S1(=NCc2ccc(-c3noc(C(F)(F)F)n3)cc2)CCNCC1 [Compound 24] for me? 219 to 223 °C
